B1: Azoarcus group I ribozyme (parent)
chain: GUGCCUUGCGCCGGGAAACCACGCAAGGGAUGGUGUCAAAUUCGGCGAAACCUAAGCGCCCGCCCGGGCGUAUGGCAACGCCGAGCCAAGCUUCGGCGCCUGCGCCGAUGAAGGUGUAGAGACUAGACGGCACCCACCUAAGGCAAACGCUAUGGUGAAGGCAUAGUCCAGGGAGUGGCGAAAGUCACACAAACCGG

variants of: B1; assay: reverse-splicing fitness (ratio to wild type); higher = more active; in vitro selection; Mg2+ level not given
Lab note: compare reverse-splicing fitness against 0.02. Equal or greater, write label 1. Smaller, write label 0.

Worked set:
# Mut, Assigned label
data = [
    ("C82U A111G A145C C150A U176G", "label 0"),
    ("C82G A111U A120G C150U C169A U176C", "label 0"),
    ("C82G A111U A145C C150A C169A U176G", "label 0"),
    ("C82G A111C A145G C150A C169G U176G", "label 0"),
    ("A120C A145C C150U C169A", "label 0"),
]

Is it the case that A111C A120G A145G C150A C169G has reverse-splicing fitness reaching or exceeding 0.02?
label 1

Is it the case that C82U A145G C150A U176A has reverse-splicing fitness reaching or exceeding 0.02?
label 1

Is it the case that C82A A111C A120C A145U C150U C169A U176A has reverse-splicing fitness reaching or exceeding 0.02?
label 0

Is it the case that C82A A120G C150U C169U U176C has reverse-splicing fitness reaching or exceeding 0.02?
label 0

Is it the case that C82U A111U A145G C150A U176A has reverse-splicing fitness reaching or exceeding 0.02?
label 1
